Let's look at some compounds and their measured fraction unbound.
test: Protein binding in human plasma; format: ADME, cell-free; settings: read-out: PPB
endpoint: fraction unbound

* COc1cccc(C(c2cc3cc(Br)ccc3nc2OC)C(O)(CCN(C)C)c2cccc(C)n2)c1F (racemic) | < 0.001
* CCc1cc(C(O)(CCN(C)C)C(c2cc3cc(Br)ccc3nc2OC)c2cccc(OC)c2F)cc(CC)n1 (racemic) | < 0.001
* COc1nc2ccc(Br)cc2cc1[C@@H](c1ccccc1)[C@@](O)(CCN(C)C)c1cccc2ccccc12 | < 0.001
* COc1cnc(OC)c(C(O)(CCN(C)C)C(c2cc3cc(Br)ccc3nc2OC)c2cccc(OC)c2F)c1 (racemic) | < 0.001
* COc1cc(C(O)(CCN(C)C)C(c2cc3cc(Br)ccc3nc2OC)c2ccnc(OC)c2OC)cnc1OC (racemic) | < 0.001
* COc1nc2ccc(Br)cc2cc1C(c1cccc(C)c1)C(O)(CCN(C)C)c1cccnc1C (racemic) | < 0.001
* CCOc1cc(C(O)(CCN(C)C)C(c2cc3cc(Br)ccc3nc2OC)c2ccnc(OC)c2OC)cc(OC(C)C)n1 (racemic) | < 0.001
* COc1nc2ccc(Br)cc2cc1C(c1cccc2c1OCO2)C(O)(CCN(C)C)c1cccnc1C (racemic) | < 0.001
* COc1cccc(C(c2cc3cc(C#N)ccc3nc2OC)C(O)(CCN(C)C)c2cc(C)nc(C)c2)c1OC (racemic) | < 0.001
* COc1nc2ccc(C#N)cc2cc1C(c1cccc(F)c1)C(O)(CCN(C)C)c1cncc(C)c1 (racemic) | < 0.001
* COc1cccc(C(c2cc3cc(Br)ccc3nc2OC)C(O)(CCN(C)C)c2ccc(C)nc2)c1F (racemic) | < 0.001
* COc1cccc(C(O)(CCN(C)C)C(c2cc3cc(Br)ccc3nc2OC)c2cccc3c2OCO3)n1 (racemic) | < 0.001
* COc1cccc(C(c2cc3cc(Br)ccc3nc2OC)C(O)(CCN(C)C)c2cc(C)cnc2C)c1OC (racemic) | < 0.001
* COc1cccc(C(c2cc3cc(C#N)ccc3nc2OC)C(O)(CCN(C)C)c2cc(C)nc(C)c2)c1F (racemic) | < 0.001

Origin of values: ChEMBL document CHEMBL4480421
